System: serum IgG of RA patients, disease controls and healthy controls
assay details: ELISA for IgG antibodies to cyclic α-enolase peptides, UK cohort sera
Type: binding, human
measurement conditions: UK cohort RA sera; cut-off OD450 = 0.1
Bridges are numbered along the chain shown (N, C = ends). Where no end group is shown, it is not given here. [ ]: non-standard residue; d: D form. Cit = NC(=O)NCCC[C@H](N)C(=O)O
measure: % positive, RA (n = 102) (%)
Please give a number only; it is taken to be in %.

substance: cnf-X-eam-X-igaevyhnlknc (CNF[Cit]EAM[Cit]IGAEVYHNLKNC; disulfide 1-20 (inferred); listed as Homo sapiens) [Peptide 5, human α-enolase aa 177-194]
% positive, RA (n = 102), %: 11

Assign % positive, RA (n = 102) to the following record: ckiha-X-eifds-X-gnptvec (CKIHA[Cit]EIFDS[Cit]GNPTVEC; disulfide 1-19 (inferred); listed as Homo sapiens) [Peptide 1A]
37.3

Assign % positive, RA (n = 102) to the following record: ckiha-R-eifds-X-gnptvec (CKIHAREIFDS[Cit]GNPTVEC; disulfide 1-19 (inferred); listed as Homo sapiens) [Peptide 1B]
40

Assign % positive, RA (n = 102) to the following record: ciqvvgddltvtnpk-X-iakac (CIQVVGDDLTVTNPK[Cit]IAKAC; disulfide 1-21 (inferred); listed as Homo sapiens) [Peptide 10, human α-enolase aa 313-331]
6

Assign % positive, RA (n = 102) to the following record: cakynqll-X-ieeelgskac (CAKYNQLL[Cit]IEEELGSKAC; disulfide 1-19 (inferred); listed as Homo sapiens) [Peptide 8, human α-enolase aa 405-421]
7
